# assay target: T1, human EphA6 (Homo sapiens, UniProt Q9UF33)
# T1 construct: a protein of the extracellular region of each human Eph receptor fused with the SEAP protein and the His tag; made in house; host or cells: Expi293F cells (culture supernatant)
# T1 sequence (Q9UF33 23-550 limits assumed): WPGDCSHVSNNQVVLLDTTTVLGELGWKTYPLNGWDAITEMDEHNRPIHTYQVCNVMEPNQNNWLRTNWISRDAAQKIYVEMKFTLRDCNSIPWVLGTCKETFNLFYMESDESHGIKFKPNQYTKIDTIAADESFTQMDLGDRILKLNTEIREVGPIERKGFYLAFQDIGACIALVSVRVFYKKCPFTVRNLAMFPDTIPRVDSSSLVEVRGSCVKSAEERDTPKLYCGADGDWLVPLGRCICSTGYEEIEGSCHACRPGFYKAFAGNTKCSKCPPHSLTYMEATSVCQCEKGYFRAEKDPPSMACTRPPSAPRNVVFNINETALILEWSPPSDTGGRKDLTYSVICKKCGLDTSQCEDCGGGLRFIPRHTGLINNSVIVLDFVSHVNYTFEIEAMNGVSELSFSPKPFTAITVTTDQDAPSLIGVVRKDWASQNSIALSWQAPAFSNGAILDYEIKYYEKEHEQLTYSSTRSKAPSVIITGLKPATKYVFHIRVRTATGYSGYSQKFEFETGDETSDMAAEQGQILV
# assay overview: Selectivity ELISA of humanized antibodies for human Eph receptor
# Assay type: binding
# assay setup: coated protein 1 nM
Consider the following molecules and their measured hEphA6-SEAP-: absorbance at 450 nm, percentage with respect to hEphA4-SEAP-His as 100% readings.
# unit: % | format: bare number

Known results for molecules:
[
  {
    "molecule": "141 (antibody, V domains shown, synthetic humanized antibody heavy chain variable region sequence; synthetic humanized antibody light chain variable region sequence) VH: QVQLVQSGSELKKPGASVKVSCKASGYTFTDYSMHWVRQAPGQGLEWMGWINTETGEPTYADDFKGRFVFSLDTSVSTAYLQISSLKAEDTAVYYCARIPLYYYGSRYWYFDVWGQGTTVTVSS VL: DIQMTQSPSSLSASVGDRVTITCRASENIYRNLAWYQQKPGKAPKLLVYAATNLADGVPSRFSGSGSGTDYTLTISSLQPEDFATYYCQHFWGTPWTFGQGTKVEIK",
    "value observed": 9.0
  },
  {
    "molecule": "92 (antibody, V domains shown, constant regions without entry; synthetic humanized antibody light chain variable region sequence; synthetic humanized antibody heavy chain variable region sequence) VL: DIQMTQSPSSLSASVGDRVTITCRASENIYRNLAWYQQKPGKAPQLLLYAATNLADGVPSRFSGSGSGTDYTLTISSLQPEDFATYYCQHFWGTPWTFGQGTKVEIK VH: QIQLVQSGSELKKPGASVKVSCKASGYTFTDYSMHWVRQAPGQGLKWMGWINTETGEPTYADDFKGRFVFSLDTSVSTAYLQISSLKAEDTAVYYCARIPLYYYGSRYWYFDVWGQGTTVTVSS",
    "value observed": 9.6
  },
  {
    "molecule": "83 (antibody, V domains shown, constant regions without entry; synthetic humanized antibody light chain variable region sequence; synthetic humanized antibody heavy chain variable region sequence) VL: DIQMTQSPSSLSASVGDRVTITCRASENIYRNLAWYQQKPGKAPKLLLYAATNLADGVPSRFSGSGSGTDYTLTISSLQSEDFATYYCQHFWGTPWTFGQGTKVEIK VH: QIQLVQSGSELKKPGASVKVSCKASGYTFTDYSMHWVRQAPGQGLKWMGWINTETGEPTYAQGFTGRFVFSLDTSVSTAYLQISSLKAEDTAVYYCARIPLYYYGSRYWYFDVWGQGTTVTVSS",
    "value observed": 7.5
  }
]

Please give measured hEphA6-SEAP-: absorbance at 450 nm, percentage with respect to hEphA4-SEAP-His as 100% of the following entry: 89 (antibody, V domains shown, constant regions without entry; synthetic humanized antibody light chain variable region sequence; synthetic humanized antibody heavy chain variable region sequence) VL: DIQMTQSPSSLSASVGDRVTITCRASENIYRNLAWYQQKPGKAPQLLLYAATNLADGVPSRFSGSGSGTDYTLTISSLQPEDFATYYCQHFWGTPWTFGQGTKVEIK VH: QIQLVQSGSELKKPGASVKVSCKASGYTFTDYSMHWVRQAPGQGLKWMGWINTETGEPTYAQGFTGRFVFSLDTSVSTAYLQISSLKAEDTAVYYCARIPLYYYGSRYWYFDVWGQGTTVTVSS 8.4
